In this section we review reported pIC50 values for a set of compounds.
Study system: GDP-bound KRAS protein (aa 1-169), containing both G12C and C118A amino acid substitutions (Homo sapiens (Human), UniProt P01116, C118A/G12C)
Sequence (P01116 other isoform, or with tags, fused parts or gaps G12C/C118A): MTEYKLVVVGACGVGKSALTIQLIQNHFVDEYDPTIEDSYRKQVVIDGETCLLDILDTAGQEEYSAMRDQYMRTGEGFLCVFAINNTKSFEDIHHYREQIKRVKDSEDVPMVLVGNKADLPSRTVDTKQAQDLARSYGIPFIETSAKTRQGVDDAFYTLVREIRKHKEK
Test details: Coupled Nucleotide Exchange Assay
Assay type: biochemical
Measurement parameters: third Coupled Exchange column; compound pre-incubation probably 20 hours (rest of head not shown; b435 lists 5 min, 2 hours or 20 hours); read-out: Coupled Exchange IC50
pIC50: −log10 of the molar value.

{"Compound": "C=CC(=O)N1CC(CO)(N(C)C(=O)Cn2ccc3cc(Br)ccc32)C1 [Example 354]", "Censor symbol": "<", "pIC50": 4.20}
{"Compound": "C=CC(=O)N1CC(NC(=O)Cn2ccc3cccc(CC#N)c32)C1 [Example 360]", "Censor symbol": "<", "pIC50": 3.60}
{"Compound": "C=CC(=O)N1CC(NC(=O)Cn2c(C)c(-c3cccnc3Br)c3cc(Cl)ccc32)C1 [Example 305]", "Censor symbol": "=", "pIC50": 6.09}
{"Compound": "C=CC(=O)N1CC(NC(=O)Cn2ccc3cc(CC)ccc32)C1 [Example 277]", "Censor symbol": "<", "pIC50": 3.60}
{"Compound": "C=CC(=O)N1CC(NC(=O)Cn2c3ccccc3c3ccc(Cl)nc32)C1 [Example 280]", "Censor symbol": "<", "pIC50": 4.20}
{"Compound": "C=CC(=O)N1CC(NC(=O)Cn2ccc3cc(Br)ccc32)C1C (stereo not drawn) [Example 361]", "Censor symbol": "=", "pIC50": 5.52}
{"Compound": "C=CC(=O)N1CC(N(C)C(=O)Cn2ccc3c(C)c(Br)ccc32)C1 [Example 350]", "Censor symbol": "=", "pIC50": 5.82}
{"Compound": "C=CC(=O)N1CC(NC(=O)Cn2c(C#N)c(I)c3cc(Br)ccc32)C1 [Example 304]", "Censor symbol": "=", "pIC50": 5.91}
{"Compound": "C=CC(=O)N1CC(C)(NC(=O)Cn2ccc3cc(Br)ccc32)C1 [Example 352]", "Censor symbol": "=", "pIC50": 4.60}

###

Study system: GDP-bound KRAS protein (aa 1-169), containing both G12C and C118A amino acid substitutions (Homo sapiens (Human), UniProt P01116, C118A/G12C)
Test details: Coupled Nucleotide Exchange Assay
Format: biochemical
Measurement parameters: first Coupled Exchange column; compound pre-incubation probably 5 min (rest of head not shown; b435 lists 5 min, 2 hours or 20 hours); read-out: Coupled Exchange IC50

{"Compound": "C=CC(=O)N1CC(NC(=O)Cn2ccc3cc(Br)ccc32)C1C (centres unmarked)", "Censor symbol": "=", "IC50 (µM)": 231}
{"Compound": "C=CC(=O)N1CC(N(C)C(=O)Cn2cc(C)c3cc(Br)ccc32)C1", "Censor symbol": "=", "IC50 (µM)": 155}
{"Compound": "C=CC(=O)N1CC(NC(=O)Cn2cc(CC(=O)N3CCC(c4ncc[nH]4)CC3)c3cc(Br)ccc32)C1", "Censor symbol": "=", "IC50 (µM)": 45.9}
{"Compound": "C=CC(=O)N1CC(N(C)C(=O)Cn2c(C)cc3cc(Br)ccc32)C1", "Censor symbol": "=", "IC50 (µM)": 235}
{"Compound": "C=CC(=O)N1CC(NC(=O)Cn2cc(CC(=O)N3CC4CCC3C4)c3cc(Br)ccc32)C1 (centres unmarked)", "Censor symbol": "=", "IC50 (µM)": 80.1}
{"Compound": "C=CC(=O)N1CC(NC(=O)Cn2cc(CC(=O)N3CCc4ccc(C(=O)O)cc4C3)c3cc(Br)ccc32)C1", "Censor symbol": "=", "IC50 (µM)": 36.6}
{"Compound": "C=CC(=O)N1CC(NC(=O)Cn2c(C)c(-c3cccnc3OCC(C)C)c3cc(Cl)cc(C)c32)C1", "Censor symbol": "=", "IC50 (µM)": 4.43}
{"Compound": "C=CC(=O)N1CC(NC(=O)Cn2c(C)c(-c3cnccc3C3=CCOCC3)c3cc(Cl)cc(C)c32)C1", "Censor symbol": "=", "IC50 (µM)": 2.44}
{"Compound": "C=CC(=O)N1CC(NC(=O)Cn2c(C3CC3)c(-c3cnccc3C(C)C)c3cc(Cl)cc(C)c32)C1", "Censor symbol": "=", "IC50 (µM)": 2.42}
{"Compound": "C=CC(=O)N1CC(N(C)C(=O)Cn2ccc3cc(Br)ccc32)C1", "Censor symbol": ">", "IC50 (µM)": 250}
{"Compound": "C=CC(=O)N1C[C@H](N(C)C(=O)Cn2ccc3cc(Br)ccc32)[C@@H]1C", "Censor symbol": ">", "IC50 (µM)": 250}
